- assayedTarget: T1, SP70 peptide epitope of the EV71 VP1 capsid protein (Enterovirus 71)
- T1 construct: 15-amino acid peptide; residues 208-222 counted on VP1
- T1 peptide: YPTFGEHKQEKDLEY
- experiment: binding ELISA on SP70 peptide, OD 650 nm
measuredProperty: binding result

hEV71 HGKA (antibody, V domains shown, Named only within the range hEV71 HCKA to hEV71 HJKA; Variable domains only) VH: QVQLVQSGAEVKKPGASVKVSCKASGYTFTDTYIHWVRQAPGQRLEWIGKIDPANGNTKYDPKFQDKVTITRDTSASTAYMELSSLRSEDTAVYYCASSNYWFDFDYWGQGTLVTVSS VL: DIVMTQSPLSLPVTPGEPASISCRSSQSIVHSNGNTYLEWYLQKPGQSPQLLIYKVSNRFSGVPDRFSGSGSGTDFTLKISRVEAEDVGVYYCYQGSHVPYTFGGGTKVEIK : binds
hEV71 HDKA (antibody, V domains shown, Variable domains only) VH: QVQLVQSGAEVKKPGASVKVSCKASGYNFTDTYIHWVRQAPGQRLEWIGKIDPANGNTKYDPKFQDRVTITRDTSASTAYMELSSLRSEDTAVYYCASSNYWFDFDYWGQGTLVTVSS VL: DIVMTQSPLSLPVTPGEPASISCRSSQSIVHSNGNTYLEWYLQKPGQSPQLLIYKVSNRFSGVPDRFSGSGSGTDFTLKISRVEAEDVGVYYCYQGSHVPYTFGGGTKVEIK : binds
hEV71 HFKA (antibody, V domains shown, Named only within the range hEV71 HCKA to hEV71 HJKA; Variable domains only) VH: QVQLVQSGAEVKKPGASVKVSCKASGYTFKDTYIHWVRQAPGQRLEWIGKIDPANGNTKYDPKFQDRVTITRDTSASTAYMELSSLRSEDTAVYYCASSNYWFDFDYWGQGTLVTVSS VL: DIVMTQSPLSLPVTPGEPASISCRSSQSIVHSNGNTYLEWYLQKPGQSPQLLIYKVSNRFSGVPDRFSGSGSGTDFTLKISRVEAEDVGVYYCYQGSHVPYTFGGGTKVEIK : binds
